Parameter 'readout' = pIC50; parameter 'system' = hCA II (Homo sapiens, UniProt P00918).
Numbers only, as −log10 of the molar value.

>>> df
                                   molecule  number
0  NS(=O)(=O)c1ccc(N2N=C(c3ccc(F)cc3)CC2c2ccccc2)cc1 (centres unmarked) [Compound 13]    6.27

Note: attention shifts to another entry.
Qu. Which pIC50 is listed for NS(=O)(=O)c1ccc(N2N=C(c3ccc(Cl)cc3)CC2c2ccccc2)cc1 (centres unmarked) [Compound 12] ?
Ans. 6.25

----------
target: hCA I (Homo sapiens)
Sequence (P00915 whole entry): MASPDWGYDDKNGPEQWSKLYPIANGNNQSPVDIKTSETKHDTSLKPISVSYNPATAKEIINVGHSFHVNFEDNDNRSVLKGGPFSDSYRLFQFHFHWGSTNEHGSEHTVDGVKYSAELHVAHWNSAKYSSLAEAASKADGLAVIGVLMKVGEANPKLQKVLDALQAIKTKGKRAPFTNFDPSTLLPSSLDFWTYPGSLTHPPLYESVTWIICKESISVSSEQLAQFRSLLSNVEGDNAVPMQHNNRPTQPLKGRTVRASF
READOUT TYPE: IC50 (µM)
Numbers only, in µM.

>>> print(df.to_string())
                                   compound  readout_type  number
0  NS(=O)(=O)c1ccc(N2N=C(c3ccc(Br)cc3)CC2c2ccccc2)cc1 (centres unmarked)          IC50   0.405

Note: attention shifts to another entry.
Qu. Which IC50 is listed for NS(=O)(=O)c1ccc(N2N=C(c3ccc(O)cc3)CC2c2ccccc2)cc1 (centres unmarked) ?
Ans. 0.528
